- Tested on: biotinyl-Met-oxazolone
- procedure summary: self-aminoacylation, catalytic enhancement (BMO) (fold over background); higher = more active; k-Seq, kA / k0A0; sequences stand for … in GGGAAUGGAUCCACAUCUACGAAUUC…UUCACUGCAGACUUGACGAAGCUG
This sample holds only a part of the variants without activity.
sequences and their reported self-aminoacylation

seq string	self-aminoacylation
AUUACCCUGGUCAUCGCGUCA [Fam2.1 aminoacylation ribozyme variant]	2.38
CUACUUCACACACUCGGUCUG [Fam1A.1 aminoacylation ribozyme variant]	1.42
AUGACCCUUGUCAUCGAGUGA [Fam2.1 aminoacylation ribozyme variant]	6.11
CCACAAUUCAAGCAAGCGGUC [Fam1B.1 aminoacylation ribozyme variant]	1.3
AUUACCCUGGUCCGCGAGUGA [Fam2.1 aminoacylation ribozyme variant]	10.5
AAGUUUGCUAAUAAUCGGAAG [Fam3.1 aminoacylation ribozyme variant]	0.973
AUCACCCUGCUCAUCGAGUGA [Fam2.1 aminoacylation ribozyme variant]	2.48
UCACACUUCAAGCAAACGGUC [Fam1B.1 aminoacylation ribozyme variant]	0.682
AUUCAACUAGGGCAUCGGGUG [Fam2.2 aminoacylation ribozyme variant]	3.16

* * *

- Test system: biotinyl-Leu-oxazolone
- procedure summary: self-aminoacylation, catalytic enhancement (BLO) (fold over background); higher = more active; k-Seq, kA / k0A0; sequences stand for … in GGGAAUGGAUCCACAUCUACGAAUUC…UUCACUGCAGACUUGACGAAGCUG
Fewer inactive variants are shown than the library holds.

seq string	self-aminoacylation
AUUCACCUAGGUCUCCGGGUG [Fam2.2 aminoacylation ribozyme variant]	9.35
GUUACCCUGGCCAUCGAGUGA [Fam2.1 aminoacylation ribozyme variant]	8.07
AAGUUUGUUAAUACUCGCAAG [Fam3.1 aminoacylation ribozyme variant]	0.76

* * *

sequences and their reported self-aminoacylation
- System: biotinyl-Phe-oxazolone
- procedure summary: self-aminoacylation, catalytic enhancement (BFO) (fold over background); higher = more active; k-Seq, kA / k0A0; sequences stand for … in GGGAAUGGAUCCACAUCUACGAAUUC…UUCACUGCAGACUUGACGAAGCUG
Fewer inactive variants are shown than the library holds.

seq string	self-aminoacylation
CCACACGUCAAACAAUCGGUC [Fam1B.1 aminoacylation ribozyme variant]	1.2
CUAUUUCGAACAAUCGGUCUG [Fam1A.1 aminoacylation ribozyme variant]	0.664
ACUACCGUGGUCAUCGAGUGA [Fam2.1 aminoacylation ribozyme variant]	18
CUACUUCAAACAAUCGGGGUG [Fam1A.1 aminoacylation ribozyme variant]	2.9

* * *

- Test system: biotinyl-Met-oxazolone
- procedure summary: self-aminoacylation, catalytic enhancement (BMO) (fold over background); higher = more active; k-Seq, kA / k0A0; sequences stand for … in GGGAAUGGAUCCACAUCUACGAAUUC…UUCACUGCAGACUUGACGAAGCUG
This sample holds only a part of the variants without activity.
sequences and their reported self-aminoacylation

seq string	self-aminoacylation
CUACUUCAAACCAUCGGUUUG [Fam1A.1 aminoacylation ribozyme variant]	0.74
ACUCACCUAGGGCAUCGGGUG [Fam2.2 aminoacylation ribozyme variant]	3.92
AAGUUUGCUAAUAAUCGAAAG [Fam3.1 aminoacylation ribozyme variant]	0.793
CUACUUCAAAAAGUCGGUCUG [Fam1A.1 aminoacylation ribozyme variant]	0.856

* * *

- System: biotinyl-Leu-oxazolone
- procedure summary: self-aminoacylation, catalytic enhancement (BLO) (fold over background); higher = more active; k-Seq, kA / k0A0; sequences stand for … in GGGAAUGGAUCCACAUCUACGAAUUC…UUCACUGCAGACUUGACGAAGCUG
Fewer inactive variants are shown than the library holds.

seq string	self-aminoacylation
CUUACCCUGGUCAUCGACUGA [Fam2.1 aminoacylation ribozyme variant]	0.833
AAGUUUGCUAAUCGUCGUAAG [Fam3.1 aminoacylation ribozyme variant]	0.75
AUUACCCUGCUCAUCGAGUCA [Fam2.1 aminoacylation ribozyme variant]	0.646
AUUACCCUCGUCAACGAGUGA [Fam2.1 aminoacylation ribozyme variant]	3
CCACAGUUCAAGCAAUCGUUC [Fam1B.1 aminoacylation ribozyme variant]	0.743
AUUCAACUAGGUCAUCGGGUC [Fam2.2 aminoacylation ribozyme variant]	1.15
AUUCGCCUAGGUCAUCGGGAG [Fam2.2 aminoacylation ribozyme variant]	1.87
CCAGACUUCAAGCAACCGGUC [Fam1B.1 aminoacylation ribozyme variant]	1.02
AUUACGCUGAUCAUCGAGUGA [Fam2.1 aminoacylation ribozyme variant]	5.8
CCAUACUUCAAGAAAUCGGUC [Fam1B.1 aminoacylation ribozyme variant]	0.87
AUUCACCUUGGUCAUCGAGUG [Fam2.2 aminoacylation ribozyme variant]	4.66
CUACACUUCAAGCUAUCGGUC [Fam1B.1 aminoacylation ribozyme variant]	0.692
AAGUUUGCUAAUAGUCGCCCG [Fam3.1 aminoacylation ribozyme variant]	3.87
GAGUUCGCUAAUAGUCGCAAG [Fam3.1 aminoacylation ribozyme variant]	2.71
AUUAACCUAGGUCAUCGGUUG [Fam2.2 aminoacylation ribozyme variant]	1.19
CUACUUCUAACAAUCGGUCUC [Fam1A.1 aminoacylation ribozyme variant]	0.572
CUACUUCAAACAAACGGCCUG [Fam1A.1 aminoacylation ribozyme variant]	1.18
AUUCCCCUAGGUCAUGGGGUG [Fam2.2 aminoacylation ribozyme variant]	24.7

* * *

sequences and their reported self-aminoacylation
- System: biotinyl-Trp-oxazolone
- procedure summary: self-aminoacylation, catalytic enhancement (BWO) (fold over background); higher = more active; k-Seq, kA / k0A0; sequences stand for … in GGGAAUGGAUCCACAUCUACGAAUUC…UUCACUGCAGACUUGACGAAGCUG
Variants at the floor of the assay were thinned out.

seq string	self-aminoacylation
CGACUUCAAACAAUCGGUCGG [Fam1A.1 aminoacylation ribozyme variant]	5.43
AAGUUUGCUAAUCGUCGUAAG [Fam3.1 aminoacylation ribozyme variant]	2.06
AUCCACCUAGGACAUCGGGUG [Fam2.2 aminoacylation ribozyme variant]	5.03
AUUCACGUAGGUCAUCGGGUU [Fam2.2 aminoacylation ribozyme variant]	2.93
CUACUACAAAGAAUCGGUCUG [Fam1A.1 aminoacylation ribozyme variant]	0.8
AUUCAGCUAGGUCAUUGGGUG [Fam2.2 aminoacylation ribozyme variant]	3.25
CCACACUUCAAUCAAUCGGUA [Fam1B.1 aminoacylation ribozyme variant]	0.739
CCACACUUCAAGCACUGGGUC [Fam1B.1 aminoacylation ribozyme variant]	1.03

* * *

sequences and their reported self-aminoacylation
- Test system: biotinyl-Phe-oxazolone
- procedure summary: self-aminoacylation, catalytic enhancement (BFO) (fold over background); higher = more active; k-Seq, kA / k0A0; sequences stand for … in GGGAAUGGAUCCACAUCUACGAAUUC…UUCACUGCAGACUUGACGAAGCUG
Variants at the floor of the assay were thinned out.
quantity: self-aminoacylation

seq string	test result
CUACUUCACACAAUGGGUCUG [Fam1A.1 aminoacylation ribozyme variant]	0.647
UUUCACCUAGGUCAGCGGGUG [Fam2.2 aminoacylation ribozyme variant]	24.2
AAGUUUGCUAAUAGUCGCCGG [Fam3.1 aminoacylation ribozyme variant]	10.5
CGACACUCCAAGCAAUCGGUC [Fam1B.1 aminoacylation ribozyme variant]	0.914
CUACUUCAAACAAUCCGUCCG [Fam1A.1 aminoacylation ribozyme variant]	0.694
CUACUUCAAAUAAGCGGUCUG [Fam1A.1 aminoacylation ribozyme variant]	0.945
CUAGUUCAAACAAUCGGUCUG [Fam1A.1 aminoacylation ribozyme variant]	11
CUACUUCGAACAAUCCGUCUG [Fam1A.1 aminoacylation ribozyme variant]	0.35
AUUAACCUAGGUCAUCGGUUG [Fam2.2 aminoacylation ribozyme variant]	3.47
AUUCACUGAGGUCAUCGGGUG [Fam2.2 aminoacylation ribozyme variant]	55.7
CCCCACUUCAAGCAAUCGGUG [Fam1B.1 aminoacylation ribozyme variant]	75.4
GUUCUUCAAACAAUCGGUCUG [Fam1A.1 aminoacylation ribozyme variant]	3.63
CUACUUCAAACACUCGUUCUG [Fam1A.1 aminoacylation ribozyme variant]	0.429
AUUACCCUGUUCAUCGAGUUA [Fam2.1 aminoacylation ribozyme variant]	0.909
CCACACUUCAAGUAAUCGGUC [Fam1B.1 aminoacylation ribozyme variant]	16.4
AUUUACCUAGGUCACCGGGUG [Fam2.2 aminoacylation ribozyme variant]	26.5
CUACUUCAAAUACUCGGUCUG [Fam1A.1 aminoacylation ribozyme variant]	0.622
AUGAACCUAGGUCAUCGGGUG [Fam2.2 aminoacylation ribozyme variant]	24.6
CUACUUCAACCCAUCGGUCUG [Fam1A.1 aminoacylation ribozyme variant]	0.647
AUUACCUUGGUCAUCGAGUGU [Fam2.1 aminoacylation ribozyme variant]	3.39
AUUACUCUGGUCACCGAGUGA [Fam2.1 aminoacylation ribozyme variant]	44.4
CUACUUCAAAUAAUCGCUCUG [Fam1A.1 aminoacylation ribozyme variant]	2.37
AUUCAGCUAGGUCAUUGGGUG [Fam2.2 aminoacylation ribozyme variant]	15
CUUACCCUGAUCAUCGAGUGA [Fam2.1 aminoacylation ribozyme variant]	16.5
AAGUUGGCUAACAGUCGCAAG [Fam3.1 aminoacylation ribozyme variant]	2.15
CUACUUGAAUCAAUCGGUCUG [Fam1A.1 aminoacylation ribozyme variant]	0.466
AAGUUUACUAAUAGACGCAAG [Fam3.1 aminoacylation ribozyme variant]	1.15
AUUACCCUUCUCAUCGAGUGA [Fam2.1 aminoacylation ribozyme variant]	30.8
AAGUAUGUUAAUAGUCGCAAG [Fam3.1 aminoacylation ribozyme variant]	1.49
CUACUUCAAAGAAUCGGUCUA [Fam1A.1 aminoacylation ribozyme variant]	1.2
AAGUUGGCUAAUCGUCGCAAG [Fam3.1 aminoacylation ribozyme variant]	2.73
CCACACUUCAAGCACUGGGUC [Fam1B.1 aminoacylation ribozyme variant]	0.974
CUAGUCCAAACAAUCGGUCUG [Fam1A.1 aminoacylation ribozyme variant]	1.03
CUACUUUAAACAAUAGGUCUG [Fam1A.1 aminoacylation ribozyme variant]	0.945
AUUCAGCUAGGUGAUCGGGUG [Fam2.2 aminoacylation ribozyme variant]	25.3
